biological target: TEAD4 TAZ (amino acids 13-57) (Homo sapiens); experiment: TEAD4-TAZ HTRF (TR-FRET) protein-protein interaction assay; conditions: TEAD4-TAZ HTRF, TR-FRET 665 nm/615 nm; read-out: TEAD4 TAZ HTRF combined: EC50
Sequence (Q15561 217-434 limits assumed): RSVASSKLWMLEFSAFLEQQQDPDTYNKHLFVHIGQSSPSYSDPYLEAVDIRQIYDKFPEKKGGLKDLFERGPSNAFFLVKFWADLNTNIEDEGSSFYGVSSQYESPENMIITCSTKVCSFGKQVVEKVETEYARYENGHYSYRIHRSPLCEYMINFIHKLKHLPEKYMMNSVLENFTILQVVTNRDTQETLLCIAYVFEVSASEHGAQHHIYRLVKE
Endpoint name: pEC50
Scale note: pEC50 = -log10(concentration in M).

Molecule	System name	pEC50
CCn1cnc(-c2nn3c(=O)cc(-c4ccc(C5CCCCC5)cc4)[nH]c3c2C(=O)N2CC(CF)C2)c1	TEAD4 TAZ (amino acids 13-57) (Homo sapiens)	6.21
COc1ccnc(-c2nn3c(=O)cc(-c4ccc(C5CCCCC5)cc4)[nH]c3c2C(=O)N2CC(CF)C2)n1	TEAD4 TAZ (amino acids 13-57) (Homo sapiens)	7.30
CCCCc1ccc(-c2cc(=O)n3nc(-c4nccnc4C)c(C(=O)N4CC(CF)C4)c3[nH]2)cc1	TEAD4 TAZ (amino acids 13-57) (Homo sapiens)	6.85
[2H]C1([2H])C([2H])([2H])C([2H])([2H])C([2H])(c2ccc(-c3cc(=O)n4nc(-c5nccnc5C)c(C(=O)N5C[C@H](CF)[C@@H]5C)c4[nH]3)cc2)C([2H])([2H])C1([2H])[2H]	TEAD4 TAZ (amino acids 13-57) (Homo sapiens)	7.52

Input line: Kindly indicate its recorded pEC50. Item: "Cc1nccnc1-c1nn2c(=O)cc(-c3ccc(O[C@@H](c4ccccc4)C(F)(F)F)cc3)[nH]c2c1C(=O)N1CC(CF)C1"
Output line: 5.40

Input line: Kindly indicate its recorded pEC50. Item: "Cc1nccnc1-c1nn2c(=O)cc(-c3ccc(C4(F)CCCCC4)cc3)[nH]c2c1C(=O)N1CC(CF)C1"
Output line: 6.74

Input line: Kindly indicate its recorded pEC50. Item: "O=C(c1nn2c(=O)cc(-c3ccc(C4CCCCC4)cc3)[nH]c2c1C(=O)N1CC(CF)C1)N1CCCC1"
Output line: 6.07

Input line: Kindly indicate its recorded pEC50. Item: Cc1nccnc1-c1nn2c(=O)cc(-c3ccc(CC4CCCC4)cc3)[nH]c2c1C(=O)N1C[C@H](CF)[C@@H]1C (single isomer, unassigned) [Isomer B, Example 42]
Output line: 7.70

Input line: Kindly indicate its recorded pEC50. Item: "O=C(c1c(-c2nccc(C(F)(F)F)n2)nn2c(=O)cc(-c3ccc(C4CCCCC4)cc3)[nH]c12)N1CC(CF)C1"
Output line: 6.07

Input line: Kindly indicate its recorded pEC50. Item: C[C@H]1[C@@H](CF)CN1C(=O)c1c(-c2ncccn2)nn2c(=O)cc(-c3ccc(CC4CCCC4)cc3)[nH]c12 (single isomer, unassigned) [Isomer A, Example 43]
Output line: 8.00
